- protocolDetails: RPL19A-GFP modulators, yeast TOR pathway, confirmation, cell-based, S. cerevisiae, flow cytometry, cherry picks, mother/daughter gates (AID 2270)
- conditionParameters: S. cerevisiae RPL19A-GFP strain, 3 h, measured here: mother cell gate, at 10 µM, stronger effect = lower value, 100 = same GFP as DMSO wells
reportedProperty: GFP response vs DMSO (%)
Use % as the unit, but write only the number.

> print(dat)
                                   compound  unitabbrev  observedvalue
1  Cc1ccc(S(=O)(=O)N2CCCC2C(=O)OCc2ccco2)cc1 (stereo unspecified)           %            103

Consider the compound COc1ccc([N+](=O)[O-])c(S(=O)(=O)c2ccc(Cl)cc2)n1 and give its measured GFP response vs DMSO.
74.7

Consider the compound Cc1noc2ncnc(Sc3ccccc3Cl)c12 and give its measured GFP response vs DMSO.
105

Consider the compound Cc1onc(-c2c(Cl)cccc2Cl)c1NC(=O)NNc1c(Cl)cncc1Cl and give its measured GFP response vs DMSO.
99.2

Consider the compound CCOC(=O)N/C(N)=N/c1nc2ccccc2s1 and give its measured GFP response vs DMSO.
86.6

Consider the compound O=C(/C(=C/O)N=Nc1ccc(Cl)cc1)c1ccncc1 and give its measured GFP response vs DMSO.
98.8

----------
- protocolDetails: RPL19A-GFP modulators, yeast TOR pathway, confirmation, cell-based, S. cerevisiae, flow cytometry, cherry picks, mother/daughter gates (AID 2270)
- conditionParameters: S. cerevisiae RPL19A-GFP strain, 3 h, measured here: mother cell gate, at 10 µM, stronger effect = lower value, 100 = same GFP as DMSO wells
reportedProperty: GFP response vs DMSO (%)
Use % as the unit, but write only the number.

Consider the compound CCc1oc2ccccc2c1C(=O)CCN1CCCCC1 and give its measured GFP response vs DMSO.
99.6

----------
- protocolDetails: yeast TOR pathway RPL19A-GFP modulators, primary screen, cell-based, S. cerevisiae, multiplex flow cytometry (AID 1862);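 further: lower values mimic rapamycin by blocking the RPL19A rise seen in DMSO cells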
- conditionParameters: S. cerevisiae RPL19A-GFP strain, flow cytometry fluorescence, 3 h; at 10 µM; stronger effect = lower value
Results filed as inconclusive are left out. Calls of active or inactive are those of the source. Rule as the data show it: active = percent of DMSO control GFP below about 86%; inactive = the rest, inconclusive results apart.
reportedProperty: percent of DMSO control GFP

> print(dat)
                               molecule    observedvalue
1  Clc1ccc2c(c1)C(N1CCNCC1)=Nc1ccccc1O2  107% (inactive)

Consider the molecule C[C@]12CC[C@H]3C(=CCc4cc(O)ccc43)[C@@H]1CCC2=O and give its measured percent of DMSO control GFP.
101% (inactive)

Consider the molecule C/C(=N/N1CCN(Cc2cccc3ccccc23)CC1)c1cccnc1 and give its measured percent of DMSO control GFP.
101% (inactive)

Consider the molecule C#CCN1C(=O)C(O)(CC(=O)c2ccc(OC)c(OC)c2)c2ccccc21 (stereo not given) and give its measured percent of DMSO control GFP.
102% (inactive)

----------
- protocolDetails: modulators of CIT2-GFP expression in yeast, confirmation, S. cerevisiae, GFP fusion, cherry picks, mother/daughter gates (AID 2274)
- conditionParameters: S. cerevisiae CIT2-GFP strain, flow cytometry, 3 h; at 10 µM; stronger effect = higher value
reportedProperty: GFP response, % of DMSO (%)
Use % as the unit, but write only the number.

Worked cases, answers included:
> print(dat)
                                   compound         reportedproperty  unitabbrev  observedvalue
1  CCCc1nnc(NC(=O)c2nc(S(=O)(=O)Cc3cccc(C)c3)ncc2Cl)s1  GFP response, % of DMSO           %           97.2
2     OCC[n+]1ccc(/C=C/c2c[nH]c3ccccc23)cc1  GFP response, % of DMSO           %            141
3  CCC(CC)C(=O)Nc1cccc(/C(C)=N/NC(=O)c2ccccc2Cl)c1  GFP response, % of DMSO           %            100
4  COc1cc(-c2noc(-c3cccc(Cl)c3)n2)cc(OC)c1OC  GFP response, % of DMSO           %            101

Consider the compound COCCN(CCOC)S(=O)(=O)c1ccc(C(=O)Nc2nnc(C)o2)cc1 and give its measured GFP response, % of DMSO.
102

Consider the compound O=C(CCC(F)(F)F)N1CCC(CO)(CCc2ccccc2)CC1 and give its measured GFP response, % of DMSO.
107

Consider the compound CC(=O)Nc1ccc(Nc2cc(C)nc3c(-c4ccc(Cl)cc4)c(C)nn23)cc1 and give its measured GFP response, % of DMSO.
105

Consider the compound Cc1ccc(S(=O)(=O)NCC23C=CC(O2)C2C(=O)N(c4ccccc4)C(=O)C23)cc1 (stereo unspecified) and give its measured GFP response, % of DMSO.
105

Data origin, for the record: PubChem BioAssay
